- Tested on: 324938-238-R-J1-PDC complex spheroids viability
- assayText: Anticancer human tumor 324938-238-R-J1-PDC patient-derived bladder carcinoma cell line growth inhibition [CLK]
- testContext: second compound 0.1 µM; first compound 0.00316 µM; stronger effect = lower value
Rule: viability, T/C below 20% gives Yes. Equal to or above 20% gives No.

Sample answers from the record:
compound="CCc1c2c(nc3ccc(O)cc13)-c1cc3c(c(=O)n1C2)COC(=O)[C@]3(O)CC + CNC(=O)c1ccc(Nc2nc(OC3CCCC3)c3c(-c4ccc5nc(C)oc5c4)c[nH]c3n2)c(OC)c1" grouplabel=Yes
compound="COc1c(OCCCN2CCOCC2)ccc2c3n(c(=NC(=O)c4cnc(N)nc4)nc12)CCN3 + CNC(=O)c1ccc(Nc2nc(OC3CCCC3)c3c(-c4ccc5nc(C)oc5c4)c[nH]c3n2)c(OC)c1" grouplabel=No
compound="CCN1CCN(Cc2ccc(Nc3ncc(F)c(-c4cc(F)c5nc(C)n(C(C)C)c5c4)n3)nc2)CC1 + CN1CCN(c2cc(C(=O)Nc3cc4cc(-c5cnn(C)c5)ccc4cn3)ccn2)CC1" grouplabel=No

Item Cn1ncnc1[C@H]1c2n[nH]c(=O)c3cc(F)cc(c23)N[C@@H]1c1ccc(F)cc1 + CN1CCN(c2cc(C(=O)Nc3cc4cc(-c5cnn(C)c5)ccc4cn3)ccn2)CC1 : viability, T/C beneath 20%, strictly?
No

Item CCc1c2c(nc3ccc(O)cc13)-c1cc3c(c(=O)n1C2)COC(=O)[C@]3(O)CC + CN1CCN(c2cc(C(=O)Nc3cc4cc(-c5cnn(C)c5)ccc4cn3)ccn2)CC1 : viability, T/C beneath 20%, strictly?
Yes

----------
- System: 324938-238-R-J1-PDC complex spheroids viability
- assayText: Anticancer human tumor 324938-238-R-J1-PDC cell line growth inhibition [CLK];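 further: viability read after seven days of drug exposure; 100% = DMSO vehicle control wells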
- testContext: second compound 3.16 µM; first compound 0.0316 µM; stronger effect = lower value
- Text: A high-throughput screen of multi-cell type tumor spheroids was designed to identify active combinations of […] and targeted small molecules. Complex spheroids include a stromal component modeled by human endothelial cells (HUVEC) and fibroblasts modeled by human mesenchymal stem cells (MSCs). […] Compounds. […] If the clinical Cmax for an agent had not been determined, the highest concentration tested was 10 microM. […]
Rule: viability, T/C below 8% gives label 1. Equal to or above 8% gives label 0.

Sample answers from the record:
compound="CC1(C)CCC(CN2CCN(c3ccc(C(=O)NS(=O)(=O)c4ccc(NCC5CCOCC5)c([N+](=O)[O-])c4)c(Oc4cnc5[nH]ccc5c4)c3)CC2)=C(c2ccc(Cl)cc2)C1 + CNC(=O)c1ccc(Nc2nc(OC3CCCC3)c3c(-c4ccc5nc(C)oc5c4)c[nH]c3n2)c(OC)c1" grouplabel="label 0"
compound="C=CC(=O)N1CCN(c2nc(=O)n(-c3c(C)ccnc3C(C)C)c3nc(-c4c(O)cccc4F)c(F)cc23)C(C)C1 (stereo not given) + CNC(=O)c1ccc(Nc2nc(OC3CCCC3)c3c(-c4ccc5nc(C)oc5c4)c[nH]c3n2)c(OC)c1" grouplabel="label 0"

Item COc1c(OCCCN2CCOCC2)ccc2c3n(c(=NC(=O)c4cnc(N)nc4)nc12)CCN3 + CN1CCN(c2cc(C(=O)Nc3cc4cc(-c5cnn(C)c5)ccc4cn3)ccn2)CC1 : viability, T/C beneath 8%, strictly?
label 1

Item COc1c(OCCCN2CCOCC2)ccc2c3n(c(=NC(=O)c4cnc(N)nc4)nc12)CCN3 + CNC(=O)c1ccc(Nc2nc(OC3CCCC3)c3c(-c4ccc5nc(C)oc5c4)c[nH]c3n2)c(OC)c1 : viability, T/C beneath 8%, strictly?
label 0
